Collected set of pIC50 measured with Vascular endothelial growth factor receptor 2 (Homo sapiens, UniProt P35968) across studies.
pIC50: −log10 of the molar value.

q: Form field: pIC50 recorded for CC(C)(O)COc1cc(-c2ccc(N3C[C@@H]4C[C@@](C)(NC(=O)c5ncccc5C#N)C[C@@H]4C3)nc2)c2c(C#N)cnn2c1 with Vascular endothelial growth factor receptor 2 (Homo sapiens, UniProt P35968) (enter value)
a: < 7.00

q: Form field: pIC50 recorded for O=C(Nc1cc(F)cc(Oc2ccnc(NC(=O)C3CC3)c2)c1)Nc1ccc(Cl)c(C(F)(F)F)c1 with Vascular endothelial growth factor receptor 2 (Homo sapiens, UniProt P35968) (enter value)
a: 7.47

q: Form field: pIC50 recorded for Cc1ccc(S(=O)(=O)N=S(C)c2ccc(Nc3ncc(Br)c(NC(C)C)n3)cc2)cc1 (racemic) with Vascular endothelial growth factor receptor 2 (Homo sapiens, UniProt P35968) (enter value)
a: 7.43

q: Form field: pIC50 recorded for COCCOc1cc2nccc(Oc3ccc(NC(=O)c4cn(C)c(=O)n(-c5ccc(F)cc5)c4=O)cc3)c2c2c1OCCO2 with Vascular endothelial growth factor receptor 2 (Homo sapiens, UniProt P35968) (enter value)
a: 6.30 to 7.30

q: Form field: pIC50 recorded for Cc1c(NS(C)(=O)=O)cccc1C(=O)c1c[nH]c2ncc(Br)cc12 with Vascular endothelial growth factor receptor 2 (Homo sapiens, UniProt P35968) (enter value)
a: ≥ 5.00

q: Form field: pIC50 recorded for Fc1cccc(COc2ccc(Nc3ncnc4ccc(-c5ccc(CNCC6CCCC(Cl)C6)o5)cc34)cc2Cl)c1 (stereo not shown) with Vascular endothelial growth factor receptor 2 (Homo sapiens, UniProt P35968) (enter value)
a: > 5.00

q: Form field: pIC50 recorded for CN1CCN(c2ccc(Nc3ncc(-c4cccc(OC5CCCC5)c4)o3)cc2)CC1 with Vascular endothelial growth factor receptor 2 (Homo sapiens, UniProt P35968) (enter value)
a: > 7.00

###

Collected set of IC50 measured with Vascular endothelial growth factor receptor 2 (Homo sapiens) across studies.

C[C@@H](Nc1ncnc2[nH]c(-c3ccc(C(=O)NO)cc3)cc12)c1ccc(F)cc1 :: 100 to 1000 nM
OCCOc1ccc(F)c(Cc2c[nH]c3ncc(-c4cccnc4)cc23)c1F :: ≤ 10000 nM
Cn1cc(C(=O)Nc2ccc(Oc3ccnc4cc(OCC(C)(C)O)c5c(c34)OCCO5)cc2)c(=O)n(-c2ccc(F)cc2)c1=O :: 500 to 5000 nM
CCOc1cc(-c2ccc(N3C[C@@H]4C[C@@](C)(NC(=O)CC(C)C)C[C@@H]4C3)nc2)c2c(C#N)cnn2c1 :: 50 to 100 nM
O=C(NC1CC1)c1ccc(F)c(NCc2cnc3[nH]c(-c4ccccc4)cc3c2)c1 :: 16 nM
Cn1cc(-c2cc(-c3ccc(N4C[C@@H]5C[C@@](C)(NS(=O)(=O)c6c(F)cccc6Cl)C[C@@H]5C4)nc3)c3c(C#N)cnn3c2)cn1 :: ≤ 10 nM

q: Find the recorded IC50 belonging to COCCNC(=O)c1cc2c(Oc3ccc(NC(=O)NC4CC4)c(Cl)c3)ccnc2cc1OC and report it.
a: 3.5 nM

###

Collected set of pIC50 measured with Vascular endothelial growth factor receptor 2 (Homo sapiens, UniProt P35968) across studies.
pIC50: −log10 of the molar value.

COc1cc2nccc(Oc3ccc(NC(=S)NCc4ccc(F)cc4)c(Cl)c3)c2cc1C(N)=O :: 6.00 to 6.70

q: Form field: pIC50 recorded for Oc1ccc(F)c(Cc2c[nH]c3ncc(Br)cc23)c1F with Vascular endothelial growth factor receptor 2 (Homo sapiens, UniProt P35968) (enter value)
a: ≥ 5.00

q: Form field: pIC50 recorded for CCCS(=O)(=O)Nc1ccc(F)c(C(=O)c2c[nH]c3ncc(CCCOC)cc23)c1F with Vascular endothelial growth factor receptor 2 (Homo sapiens, UniProt P35968) (enter value)
a: ≥ 5.00

q: Form field: pIC50 recorded for CC(F)(F)c1ccc(F)c(NC(=O)Nc2ccc(Oc3cc(NC(=O)C4CC4)ncn3)c(F)c2)c1 with Vascular endothelial growth factor receptor 2 (Homo sapiens, UniProt P35968) (enter value)
a: 7.99

q: Form field: pIC50 recorded for Cn1cc(-c2cc(Oc3cccc(NC(=O)c4cccc5[nH]ccc45)c3)ccn2)cn1 with Vascular endothelial growth factor receptor 2 (Homo sapiens, UniProt P35968) (enter value)
a: ≥ 5.00

q: Form field: pIC50 recorded for Oc1ccc(F)c(Cc2c[nH]c3ncc(-c4cccnc4)cc23)c1F with Vascular endothelial growth factor receptor 2 (Homo sapiens, UniProt P35968) (enter value)
a: ≥ 5.00

q: Form field: pIC50 recorded for COc1cc(OC)cc(N(CC2CC2)c2ccc3ncc(-c4ccn[nH]4)nc3c2)c1 with Vascular endothelial growth factor receptor 2 (Homo sapiens, UniProt P35968) (enter value)
a: < 6.00

q: Form field: pIC50 recorded for COc1cc(OC)cc(N(CCCO)c2ccc3ncc(-c4ccnc(-c5ccnc(Cl)c5)c4)nc3c2)c1 with Vascular endothelial growth factor receptor 2 (Homo sapiens, UniProt P35968) (enter value)
a: < 6.00

q: Form field: pIC50 recorded for COc1cc(OC2CCN(C)CC2(F)F)c2c(Oc3cc(F)c4[nH]c(C)cc4c3F)ncnc2c1 (racemic) with Vascular endothelial growth factor receptor 2 (Homo sapiens, UniProt P35968) (enter value)
a: > 8.00

q: Form field: pIC50 recorded for CNc1cc(Oc2ccc3c(c2)OCCN3C(=O)Nc2ccc(C)c(C(F)(F)F)c2)ncn1 with Vascular endothelial growth factor receptor 2 (Homo sapiens, UniProt P35968) (enter value)
a: 7.34

q: Form field: pIC50 recorded for COCCOc1cc2nccc(Oc3ccc(NC(=O)c4cnc(C)c(C5=CCCCC5)c4O)cc3F)c2nc1OC with Vascular endothelial growth factor receptor 2 (Homo sapiens, UniProt P35968) (enter value)
a: ≥ 7.00

###

Collected set of pIC50 measured with Vascular endothelial growth factor receptor 2 (Homo sapiens) across studies.
pIC50: −log10 of the molar value.

The following compounds have reported results that may help.
CCN(CC)c1ccc(Nc2cnc3[nH]ccc3c2)cc1 :: ≥ 5.00
O=C(Nc1cccc(Oc2cc(-c3ccn[nH]3)ncn2)c1)Nc1ccc(Cl)c(C(F)(F)F)c1 :: ≥ 5.00
COCCOc1cc2ncnc(Oc3ccc(NC(=O)NC4CCCCC4)c(Cl)c3)c2c2c1OCCO2 :: > 7.30
COc1cc(OC)cc(N(CC(O)C(F)(F)F)c2ccc3ncc(-c4cccnc4)nc3c2)c1 (single isomer, unassigned) :: 6.44
Cc1cc(OCCN(C)C)c2oc3cc(Oc4cccc(C(=O)Nc5ccccc5)c4)ccc3c(=O)c2c1 :: 5.00 to 6.00
CCCCOc1ccc(C(=O)Nc2cccc(Oc3ccnc(-c4cnn(C)c4)c3)c2)cc1 :: ≥ 5.00

q: Find the recorded pIC50 belonging to COc1ccc(Oc2ccc3c(=O)c4cc(C)cc(OCCN(C)C)c4oc3c2)cn1 and report it.
a: < 5.00

q: Find the recorded pIC50 belonging to O=C(Nc1ccc(C(=O)c2ccc3ncc(N4CCNCC4)nc3c2)cc1)Nc1cccc(Cl)c1 and report it.
a: < 7.00

q: Find the recorded pIC50 belonging to COc1cc2ncnc(Nc3ccc(NC(=O)NCCC(C)C)c(Cl)c3)c2c2c1OCCO2 and report it.
a: > 7.30

###

Collected set of pIC50 measured with Vascular endothelial growth factor receptor 2 (Homo sapiens, UniProt P35968) across studies.
pIC50: −log10 of the molar value.

The following compounds have reported results that may help.
O=C(Nc1ccc(F)cc1)Nc1ccc(F)c(C(=O)c2ccc3ncc(N4CCOCC4)nc3c2)c1 :: > 7.00
Cn1cc(-c2cc(Oc3ccc(F)c(NC(=O)Nc4ccc(C(F)(F)F)cc4Cl)c3)ncn2)cn1 :: ≥ 5.00
COc1ncc(-c2cnc3[nH]cc(C(=O)c4c(F)ccc(NS(=O)(=O)C5CCC5)c4F)c3c2)cn1 :: ≥ 5.00
Cc1cc(NC(=O)Nc2cccc(OC(F)(F)F)c2)cc(Oc2cc(NC(=O)C3CC3)ncn2)c1 :: 6.36
O=C(Nc1cc(F)cc(C(=O)c2ccc3ncc(N4CCOCC4)nc3c2)c1)c1cccc(C(F)(F)F)c1 :: > 7.00
c1cc2cc(OC3CCCC3)cnc2[nH]1 :: ≥ 5.00

q: Find the recorded pIC50 belonging to Cc1cnc2[nH]cc(C(=O)c3c(F)ccc(NS(=O)(=O)c4ccc(F)cc4F)c3F)c2c1 and report it.
a: ≥ 5.00

q: Find the recorded pIC50 belonging to C[C@@H](Nc1ncnc2[nH]c(-c3ccc(C(=O)NCCNCCC(=O)NO)cc3)cc12)c1ccccc1 and report it.
a: 6.00 to 7.00

###

Collected set of IC50 measured with Vascular endothelial growth factor receptor 2 (Homo sapiens) across studies.

N#Cc1ccnc2[nH]cc(C(=O)c3c(F)ccc(NS(=O)(=O)c4cc(F)ccc4F)c3F)c12 :: ≤ 10000 nM
Nc1ncnc2c1c(-c1cc(OC[C@@H]3CCCO3)ccc1F)cn2[C@H]1C[C@@H](N2CCN(C(=O)CO)CC2)C1 :: 9200 nM
NC(=O)c1ccc(-c2ccnc3[nH]cc(C(=O)c4cc(F)ccc4F)c23)cc1 :: ≤ 10000 nM
COc1cc2nccc(Oc3ccc(NC(=O)c4c5n(cc(C6=CCOCC6)c4=O)CCOC5)cc3F)c2nc1OC :: > 300 nM
COc1ncc(-c2cnc3[nH]cc(C(=O)c4c(F)ccc(NS(=O)(=O)C(C)C)c4F)c3c2)cn1 :: ≤ 10000 nM

q: Find the recorded IC50 belonging to Cc1cnc2[nH]cc(C(=O)c3c(F)ccc(NS(=O)(=O)C4CCC4)c3F)c2c1 and report it.
a: ≤ 10000 nM

q: Find the recorded IC50 belonging to C[C@@H](O)[C@@H](C)Nc1nc(Nc2ccc(Oc3cccnc3)cc2)ncc1Br and report it.
a: 50 nM

q: Find the recorded IC50 belonging to CCNC(=O)n1ccc2cc(Oc3ncnc4[nH]c(-c5ccc(O)cc5)cc34)ccc21 and report it.
a: 12 nM

q: Find the recorded IC50 belonging to CC(C)NC(=O)[C@H]1CC[C@@H](n2/c(=N/C(=O)c3cc(F)cc(F)c3)[nH]c3ccc(CN4CCC(C(C)(C)O)CC4)cc32)CC1 and report it.
a: > 1000 nM

q: Find the recorded IC50 belonging to COc1cc2nccc(Oc3ccc(NC(=O)c4cn(C(C)C)cc(-c5ccc(F)cc5)c4=O)cc3F)c2nc1OC and report it.
a: < 100 nM

q: Find the recorded IC50 belonging to Cn1cc(-c2cc(-c3ccc(N4C[C@@H]5[C@@H](CNC(=O)OC(C)(C)C)[C@@H]5C4)nc3)c3c(C#N)cnn3c2)cn1 and report it.
a: 10 to 50 nM

q: Find the recorded IC50 belonging to Cn1cc(-c2cnc3[nH]cc(C(=O)c4cc(NS(=O)(=O)c5ccc(F)cc5)ccc4F)c3c2)cn1 and report it.
a: ≤ 10000 nM

q: Find the recorded IC50 belonging to COc1cc2nccc(Oc3ccc(Nc4c(NCc5ccccn5)c(=O)c4=O)c(Cl)c3)c2cc1C(N)=O and report it.
a: 200 to 1000 nM

q: Find the recorded IC50 belonging to CS(=O)(=O)CCCn1cc(-c2ccc3c(-c4cc(NS(C)(=O)=O)cc(-c5ncc(F)cc5F)c4)cnn3c2)cn1 and report it.
a: 1.99 nM

q: Find the recorded IC50 belonging to O=C(O)/C=C/c1cccc(-c2ccnc3[nH]cc(C(=O)c4ccc(Cl)cc4)c23)c1 and report it.
a: ≤ 10000 nM
